TARGET_OR_SYSTEM: DDR2 (Homo sapiens, UniProt Q16832)
Construct: purchased Life Technologies
Sequence (Q16832 22-855): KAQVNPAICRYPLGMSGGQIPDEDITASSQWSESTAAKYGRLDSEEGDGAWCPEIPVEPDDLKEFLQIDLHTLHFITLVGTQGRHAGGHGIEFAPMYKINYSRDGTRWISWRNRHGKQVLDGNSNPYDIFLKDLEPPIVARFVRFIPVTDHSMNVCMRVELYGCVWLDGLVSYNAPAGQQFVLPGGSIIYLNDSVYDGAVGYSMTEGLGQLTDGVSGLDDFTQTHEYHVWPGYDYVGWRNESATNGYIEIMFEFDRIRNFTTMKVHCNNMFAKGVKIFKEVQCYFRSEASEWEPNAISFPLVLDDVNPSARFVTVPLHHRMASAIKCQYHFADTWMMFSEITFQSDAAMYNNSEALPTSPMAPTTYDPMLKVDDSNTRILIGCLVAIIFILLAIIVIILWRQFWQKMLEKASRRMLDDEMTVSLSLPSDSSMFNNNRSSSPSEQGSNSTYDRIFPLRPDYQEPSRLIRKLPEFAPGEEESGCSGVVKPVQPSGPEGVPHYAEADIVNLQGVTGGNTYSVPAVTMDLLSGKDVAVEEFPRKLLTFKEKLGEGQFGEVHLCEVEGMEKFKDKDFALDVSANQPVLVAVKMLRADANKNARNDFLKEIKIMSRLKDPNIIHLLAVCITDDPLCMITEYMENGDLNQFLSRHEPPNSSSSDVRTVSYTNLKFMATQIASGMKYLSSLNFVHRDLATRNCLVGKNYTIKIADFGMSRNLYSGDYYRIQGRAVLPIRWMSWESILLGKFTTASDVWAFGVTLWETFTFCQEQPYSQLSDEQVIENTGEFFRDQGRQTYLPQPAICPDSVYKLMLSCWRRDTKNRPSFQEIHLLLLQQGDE
METHOD_SUMMARY: LanthaScreen Europium Kinase Binding assay, DDR2
EXPERIMENTAL_CONDITIONS: 5 nM DDR2, 10 nM Kinase Tracer 178, 1 h at rt; Ki from IC50 by Cheng-Prusoff; read-out: Ki DDR2
Protocol: DDR1 and DDR2 binding assays were performed using Life Technologies LanthaScreen™ Europium Kinase Binding assay. […] IC50 values were determined in GraphPad Prism 7.0 software, using 4 parameter model: log (inhibitor) vs. response. IC50 values were converted in Ki using the Cheng-Prusoff equation (Ki-IC50/(1+ [Tracer]/Kd).
MEASURED_ATTRIBUTE: Ki

Past entries and their recorded results:
| SMILES_CODE | TARGET_OR_SYSTEM | Ki |
| --- | --- | --- |
| O=C(Nc1cccc(CC(F)(F)F)c1)NC1CC2(C1)CN(C(=O)c1ccnc3[nH]ncc13)C2 | DDR2 (Homo sapiens, UniProt Q16832) | < 5 nM |
| Cn1ccn2ncc(C(=O)N3CC4(CC(NC(=O)Nc5cc(C#N)cc(OC(F)(F)F)c5)C4)C3)c12 | DDR2 (Homo sapiens, UniProt Q16832) | < 5 nM |
| CN(C(=O)Nc1cc(Br)ccn1)C1CC2(C1)CN(C(=O)c1cnn3ccsc13)C2 | DDR2 (Homo sapiens, UniProt Q16832) | 5 to 25 nM |

Look up Ki for the entries below, preserving their order.
1. O=C(Nc1cc(F)cc(C(F)(F)F)c1)NC1CC2(C1)CN(C(=O)c1cnn3ccncc13)C2
2. COc1ccc(-c2ccc3c(C(=O)N4CC5(CC(N(C)C(=O)Nc6cncc(C(F)(F)F)c6)C5)C4)cnn3c2)cc1OC
3. O=C(Nc1cccc(S(F)(F)(F)(F)F)c1)NC1CC2(C1)CN(C(=O)c1ccnc3[nH]ncc13)C2

*A*
["5 to 25 nM", "5 to 25 nM", "< 5 nM"]

Value sought for every listed compound: Ki.
1. O=C(Nc1cccc(OC(F)F)c1)NC1CC2(C1)CN(C(=O)c1ncnc3ccsc13)C2
2. COc1ncc(C(F)(F)F)cc1NC(=O)NC1CC2(C1)CN(C(=O)c1cnn3ccsc13)C2
3. CN(C(=O)Nc1cc(C(F)(F)F)cnn1)C1CC2(C1)CN(C(=O)c1cnn3ccn(C)c13)C2
4. Cc1c(F)cc(C(F)(F)F)cc1NC(=O)N(C)C1CC2(C1)CN(C(=O)c1cnn3ccn(C)c13)C2
5. Cc1ccc(-n2nc(C(C)(C)C)cc2NC(=O)NC2CC3(C2)CN(C(=O)c2ncnc4ccsc24)C3)cc1
6. COCCn1cc(-c2ccc3c(C(=O)N4CC5(CC(N(C)C(=O)Nc6cncc(C(F)(F)F)c6)C5)C4)cnn3c2)cn1
7. O=C(Nc1cccc(C(F)(F)F)c1)NC1CC2(C1)CN(C(=O)c1cnn3cc(CNC4COC4)ccc13)C2

*A*
["< 5 nM", "5 to 25 nM", "25 to 100 nM", "5 to 25 nM", "5 to 25 nM", "5 to 25 nM", "5 to 25 nM"]

Below are some compounds; for each one, tell me its Ki.
1. CN(C(=O)Nc1cncc(C(F)(F)F)c1)C1CC2(C1)CN(C(=O)c1cnn3cc(-c4cccnc4)ccc13)C2
2. Cc1ncc(-c2ccc3c(C(=O)N4CC5(CC(N(C)C(=O)Nc6cncc(C(F)(F)F)c6)C5)C4)cnn3c2)o1

*A*
1. 5 to 25 nM
2. 5 to 25 nM

----------
TARGET_OR_SYSTEM: DDR2 (Homo sapiens, UniProt Q16832)
Construct: purchased Life Technologies
METHOD_SUMMARY: LanthaScreen Europium Kinase Binding assay, DDR2
EXPERIMENTAL_CONDITIONS: 5 nM DDR2, 10 nM Kinase Tracer 178, 1 h at rt; Ki from IC50 by Cheng-Prusoff; read-out: Ki DDR2
pKi: −log10 of the molar value.
MEASURED_ATTRIBUTE: pKi

Parameter requested: pKi. Apply to each item below.
1. CCOc1ccc(C(F)(F)F)cc1NC(=O)N(C)C1CC2(C1)CN(C(=O)c1cnn3ccn(C)c13)C2
2. Cn1nc(NC(=O)NC2CC3(C2)CN(C(=O)c2ncnc4ccsc24)C3)cc1C(C)(C)C
3. Cn1cc(N2CCOCC2)n2ncc(C(=O)N3CC4(CC(NC(=O)Nc5cccc(C(F)(F)F)c5)C4)C3)c12
4. CN(C(=O)Nc1cncc(C(F)(F)C(F)(F)F)c1)C1CC2(C1)CN(C(=O)c1cnn3ccn(C)c13)C2
5. CN(C(=O)Nc1cncc(OC(F)(F)F)c1)C1CC2(C1)CN(c1cnc3[nH]ncc3c1)C2
6. O=C(Nc1cccc(C(F)(F)F)c1)NC1CC2(C1)CN(Cc1cnc3[nH]ncc3c1)C2
7. O=C(Nc1cc(OC(F)(F)F)ccn1)OC1CC2(C1)CN(C(=O)c1cnn3ccsc13)C2

*A*
1. 7.60 to 8.30
2. 7.60 to 8.30
3. 7.00 to 7.60
4. 7.60 to 8.30
5. 7.60 to 8.30
6. 7.60 to 8.30
7. > 8.30

----------
For each of the compounds below, state its Ki.
TARGET_OR_SYSTEM: DDR2 (Homo sapiens, UniProt Q16832)
Construct: purchased Life Technologies
METHOD_SUMMARY: LanthaScreen Europium Kinase Binding assay, DDR2
EXPERIMENTAL_CONDITIONS: 5 nM DDR2, 10 nM Kinase Tracer 178, 1 h at rt; Ki from IC50 by Cheng-Prusoff; read-out: Ki DDR2

Examples from the recorded data:
| SMILES_CODE | TARGET_OR_SYSTEM | Ki |
| --- | --- | --- |
| O=C(Nc1cccc(C(F)(F)F)c1)NC1CC2(C1)CN(C(=O)c1ccnc3cc[nH]c13)C2 | DDR2 (Homo sapiens, UniProt Q16832) | < 5 nM |
| Cn1ccn2ncc(C(=O)N3CC4(CC(OC(=O)Nc5cncc(C(F)(F)F)c5)C4)C3)c12 | DDR2 (Homo sapiens, UniProt Q16832) | 5 to 25 nM |
| Cc1ncc(-c2ccc3c(C(=O)N4CC5(CC(N(C)C(=O)Nc6cncc(C(F)(F)F)c6)C5)C4)cnn3c2)cn1 | DDR2 (Homo sapiens, UniProt Q16832) | 25 to 100 nM |
| CN(C(=O)Nc1cncc(OC(F)(F)F)c1)C1CC2(C1)CN(C(=O)c1cnn3ccsc13)C2 | DDR2 (Homo sapiens, UniProt Q16832) | 5 to 25 nM |

*Q* Short answer please: Ki, DDR2 (Homo sapiens, UniProt Q16832), entry O=C(Nc1cc(C(F)F)ccn1)NC1CC2(C1)CN(C(=O)c1ncnc3ccsc13)C2
*A* < 5 nM

----------
TARGET_OR_SYSTEM: DDR2 (Homo sapiens, UniProt Q16832)
Construct: purchased Life Technologies
METHOD_SUMMARY: LanthaScreen Europium Kinase Binding assay, DDR2
EXPERIMENTAL_CONDITIONS: 5 nM DDR2, 10 nM Kinase Tracer 178, 1 h at rt; Ki from IC50 by Cheng-Prusoff; read-out: Ki DDR2
MEASURED_ATTRIBUTE: Ki

| COMPOUND | OBSERVED_VALUE |
| --- | --- |
| CN(C(=O)Nc1cccc(C(F)(F)F)c1)C1CC2(C1)CN(C(=O)c1cnn3ccn(CCF)c13)C2 [Example 195] | 5 to 25 nM |
| CN(C(=O)Nc1cc(OC(F)F)ccn1)C1CC2(C1)CN(C(=O)c1cnn3ccn(C)c13)C2 [Example 177] | 25 to 100 nM |
| COc1ccc(-c2ccc3c(C(=O)N4CC5(CC(N(C)C(=O)Nc6cncc(C(F)(F)F)c6)C5)C4)cnn3c2)cn1 [Example 253] | 5 to 25 nM |
| [2H]C([2H])([2H])N(C(=O)Nc1cccc(C(F)(F)F)c1)C1CC2(C1)CN(C(=O)c1cnn3ccn(C)c13)C2 [Example 158] | 5 to 25 nM |
| CN(C(=O)Nc1cncc(C(F)(F)F)c1)C1CC2(C1)CN(C(=O)c1cnn3ccsc13)C2 [Example 47] | 5 to 25 nM |

Please give Ki for each item listed below.
1. CCN(C(=O)Nc1cc(F)cc(C(F)(F)F)c1)C1CC2(C1)CN(C(=O)c1cnn3ccn(C)c13)C2 [Example 86]
2. Cc1ccc(C(F)(F)F)cc1NC(=O)N(C)C1CC2(C1)CN(C(=O)c1cnn3ccn(C)c13)C2 [Example 232]
3. O=C(Nc1cncc(C(F)(F)F)c1)NC1CC2(C1)CN(C(=O)c1ccnc3ccsc13)C2 [Example 49]
4. COCCc1cn2ncc(C(=O)N3CC4(CC(N(C)C(=O)Nc5cncc(C(F)(F)F)c5)C4)C3)c2n1C [Example 225]
5. COc1ccc(Cl)cc1NC(=O)NC1CC2(C1)CN(C(=O)c1cnn3ccn(C)c13)C2 [Example 38]

*A*
5 to 25 nM
5 to 25 nM
< 5 nM
25 to 100 nM
5 to 25 nM

Look up Ki for the entries below, preserving their order.
1. CN(C(=O)Nc1cc(Br)ccn1)C1CC2(C1)CN(C(=O)c1cnn3ccn(C)c13)C2 [Example 200]
2. CC(C)c1cncc(NC(=O)NC2CC3(C2)CN(C(=O)c2cnn4ccsc24)C3)c1 [Example 35]

*A*
5 to 25 nM
5 to 25 nM

State the recorded Ki for every item in the following list.
1. Cc1ncc(-c2ccc3c(C(=O)N4CC5(CC(N(C)C(=O)Nc6cncc(C(F)(F)F)c6)C5)C4)cnn3c2)s1 [Example 234]
2. Cn1ccn2ncc(C(=O)N3CC4(CC(NC(=O)Nc5cc(C(F)(F)F)ccc5OCCN5CCOCC5)C4)C3)c12 [Example 56]
3. [2H]C([2H])([2H])n1ccn2ncc(C(=O)N3CC4(CC(CC(=O)Nc5cc(OC(F)(F)F)ccn5)C4)C3)c12 [Example 301]
4. CN(C(=O)Nc1cncc(C(F)(F)F)c1)C1CC2(C1)CN(C(=O)c1cnn3ccncc13)C2 [Example 175]
5. CN(C(=O)Nc1cc(C(F)(F)F)ncn1)C1CC2(C1)CN(C(=O)c1cnn3ccsc13)C2 [Example 178]
6. Cn1ccn2ncc(C(=O)N3CC4(CC(NC(=O)Nc5cccc(C(F)(F)C(F)(F)F)c5)C4)C3)c12 [Example 127]

*A*
1: 5 to 25 nM; 2: 5 to 25 nM; 3: < 5 nM; 4: 25 to 100 nM; 5: 25 to 100 nM; 6: < 5 nM
